src = PubChem BioAssay

Protocol Text: viability loss in pontine glioma line – cell-based, SU-DIPG-XIII, MIPE4.0, CellTiter-Glo, qHTS, dose response (AID 1347061);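 further: cells exposed to compound for 48 hours before readout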
Recorded Conditions: CellTiter-Glo ATP luminescence
Records with an inconclusive call do not appear. Active and inactive are the calls of the source. Cut-off not given; nearly all actives show AC50 up to about 37 µM.
Pick one and only one: true for active, false for inactive

// below: answered molecules
> print(dat)
                                   molecule  label.value
1  COc1ccccc1OCC(O)CN1CCN(CC(=O)Nc2c(C)cccc2C)CC1 (stereo unspecified)        false
2  O=C1CCc2ccc(OCCCCN3CCN(c4cccc(Cl)c4Cl)CC3)cc2N1        false
3                              NCCCCCC(=O)O        false
4     COc1cc(NS(=O)(=O)c2ccc(N)cc2)nc(OC)n1        false
5                 Cc1ncc([N+](=O)[O-])n1CCO        false
6  Nc1ncnc2c1ncn2[C@@H]1O[C@H](CO)[C@@H](O)[C@H]1O         true

Req: Write down the call the test reported for this molecule. Item: `Cc1cc2c(C(C)C)c(O)c(O)c(C=O)c2c(O)c1-c1c(C)cc2c(C(C)C)c(O)c(O)c(C=O)c2c1O`
Resp: true

Req: Write down the call the test reported for this molecule. Item: CCCCN(CCCC)CCC(O)c1cc2c(Cl)cc(Cl)cc2c2cc(C(F)(F)F)ccc12 (stereo unspecified)
Resp: false

Req: Write down the call the test reported for this molecule. Item: `O=c1[nH]cnc2c1ncn2[C@H]1CC[C@@H](CO)O1`
Resp: false

Req: Write down the call the test reported for this molecule. Item: `O=c1oc2cc(O)ccc2s1`
Resp: false

Req: Write down the call the test reported for this molecule. Item: `CC(C)(C#N)c1cc(Cn2cncn2)cc(C(C)(C)C#N)c1`
Resp: false

---

Protocol Text: P. berghei load reduction in hepatocytes – cell-based, HepG2, luciferase luminescence, HepG2 viability, primary screen (AID 624349);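 further: 100% = mean of DMSO negative control wells on the same plate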
Recorded Conditions: P. berghei liver stage in HepG2, luciferase luminescence, concentration not given here; measured here: HepG2 viability without parasites
Measure: viability (%)
All answers are understood in %, so give the number only.

Worked examples follow.
> print(dat)
                                   compound  unit.abbreviation  endpoint.result
1          CCN(CC)CCNC(=O)c1ccc(NC(C)=O)cc1                  %              102
2  Nc1nc(F)nc2c1ncn2[C@@H]1O[C@H](CO)[C@@H](O)[C@@H]1O                  %              114
3  CC1(C)O[C@@H]2C[C@H]3[C@@H]4CCC5=CC(=O)CC[C@]5(C)[C@@]4(F)[C@@H](O)C[C@]3(C)[C@]2(C(=O)CCl)O1                  %             97.4
4                        O=c1oc2cc(O)ccc2s1                  %             88.6
5  CCOC(=O)O[C@]1(C(=O)OCCl)CC[C@H]2[C@@H]3CCC4=CC(=O)C=C[C@]4(C)[C@H]3[C@@H](O)C[C@@]21C                  %             72.9

For record `C=Cc1c(C)c2cc3[nH]c(cc4nc(cc5nc(cc1[nH]2)C(C)=C5CCC(=O)O)C(CCC(=O)O)=C4C)c(C)c3C=C` the listed viability is 65.3

For record `CCCCCCOc1ccccc1C(N)=O` the listed viability is 88.6

For record `CO[C@@]1(NC(=O)CSCC#N)C(=O)N2C(C(=O)O)=C(CSc3nnnn3C)CS[C@@H]21` the listed viability is 102

For record `CCCCCN(C)CCC(O)(P(=O)(O)O)P(=O)(O)O` the listed viability is 76.5

For record `CC(=O)Nc1ccc(CC(=O)O)cc1` the listed viability is 78.7

For record `Cc1[nH]cnc1CN1CCc2c(c3ccccc3n2C)C1=O` the listed viability is 87.6

For record `Cc1onc(-c2ccccc2)c1C(=O)N[C@@H]1C(=O)N2[C@@H]1SC(C)(C)[C@@H]2C(=O)O` the listed viability is 72.5

For record `CCC(=O)c1c(O)cc(O)cc1O` the listed viability is 70.3

For record `O=C1c2cccc3c2[C@H](CCC3)CN1[C@@H]1CN2CCC1CC2` the listed viability is 69.6

For record `O=c1oc2c(O)c(O)cc3c(=O)oc4c(O)c(O)cc1c4c23` the listed viability is 65.1

For record `CC1(C)S[C@@H]2[C@H](N=CN3CCCCCC3)C(=O)N2[C@H]1C(=O)O` the listed viability is 79.6

For record `C[C@]12CCC(=O)C=C1C=C[C@@H]1[C@@H]2CC[C@@]2(C)[C@H]1CC[C@@]21CCC(=O)O1` the listed viability is 73

For record COc1cc(C(=O)NC2CCCNC2)cc(OC)c1OC (stereo unspecified) the listed viability is 80.6

For record `C[C@H]1O[C@@H](n2cc(F)c(=O)[nH]c2=O)[C@H](O)[C@@H]1O` the listed viability is 83

For record `Cc1ccsc1C(=CCCN1CCC[C@@H](C(=O)O)C1)c1sccc1C` the listed viability is 71.9

For record `CCCN1CCCC[C@H]1C(=O)Nc1c(C)cccc1C` the listed viability is 69.6

---

viability decrease values, listed per item
Protocol Text: growth inhibition of GSK3B-pretreated HCT116 cells – cell-based, CellTiter-Glo, 0.2 to 20 µM (AID 1117336)
Recorded Conditions: HCT116 viability after GSK3B inhibitor, at 20 µM, stronger effect = higher value
All answers are understood in %, so give the number only.

For record `CC(=O)N(O)CCCCCNC(=O)CCC(=O)N(O)CCCCCNC(=O)CCC(=O)N(O)CCCCCN` the listed viability decrease is 56.1

For record `O=C(O)c1ccccc1C(=O)Nc1ccc(S(=O)(=O)Nc2nccs2)cc1` the listed viability decrease is -13.1

For record `O=C1Nc2ccc(Cl)cc2[C@@](C#CC2CC2)(C(F)(F)F)O1` the listed viability decrease is 86.5

For record `O=C1c2cccc(O)c2C(=O)c2c(O)cccc21` the listed viability decrease is 21.4

For record `COc1cc(/C=C/C(=O)CC(=O)/C=C/c2ccc(O)c(OC)c2)ccc1O` the listed viability decrease is 26.1

For record `CCCCC(=O)O[C@]1(C(=O)CO)[C@@H](C)C[C@H]2[C@@H]3CCC4=CC(=O)C=C[C@]4(C)[C@@]3(F)[C@@H](O)C[C@@]21C` the listed viability decrease is -106

For record `O=C(O)c1ccccc1Nc1cccc(C(F)(F)F)c1` the listed viability decrease is 91.3

For record OCC(O)CN1CCN(c2ccccc2)CC1 (stereo not given) the listed viability decrease is -6.6

For record `CC(=O)[C@@]1(O)CC[C@H]2[C@@H]3C[C@H](C)C4=CC(=O)C=C[C@]4(C)[C@@]3(F)[C@@H](O)C[C@@]21C` the listed viability decrease is -45.9

For record `CCN(CC)C(=O)c1cccc(C)c1` the listed viability decrease is 3.4

---

Test Target: ATP-dependent translocase ABCB1 (Homo sapiens) (UniProt P08183)
Sequence (P08183 whole entry, looked up): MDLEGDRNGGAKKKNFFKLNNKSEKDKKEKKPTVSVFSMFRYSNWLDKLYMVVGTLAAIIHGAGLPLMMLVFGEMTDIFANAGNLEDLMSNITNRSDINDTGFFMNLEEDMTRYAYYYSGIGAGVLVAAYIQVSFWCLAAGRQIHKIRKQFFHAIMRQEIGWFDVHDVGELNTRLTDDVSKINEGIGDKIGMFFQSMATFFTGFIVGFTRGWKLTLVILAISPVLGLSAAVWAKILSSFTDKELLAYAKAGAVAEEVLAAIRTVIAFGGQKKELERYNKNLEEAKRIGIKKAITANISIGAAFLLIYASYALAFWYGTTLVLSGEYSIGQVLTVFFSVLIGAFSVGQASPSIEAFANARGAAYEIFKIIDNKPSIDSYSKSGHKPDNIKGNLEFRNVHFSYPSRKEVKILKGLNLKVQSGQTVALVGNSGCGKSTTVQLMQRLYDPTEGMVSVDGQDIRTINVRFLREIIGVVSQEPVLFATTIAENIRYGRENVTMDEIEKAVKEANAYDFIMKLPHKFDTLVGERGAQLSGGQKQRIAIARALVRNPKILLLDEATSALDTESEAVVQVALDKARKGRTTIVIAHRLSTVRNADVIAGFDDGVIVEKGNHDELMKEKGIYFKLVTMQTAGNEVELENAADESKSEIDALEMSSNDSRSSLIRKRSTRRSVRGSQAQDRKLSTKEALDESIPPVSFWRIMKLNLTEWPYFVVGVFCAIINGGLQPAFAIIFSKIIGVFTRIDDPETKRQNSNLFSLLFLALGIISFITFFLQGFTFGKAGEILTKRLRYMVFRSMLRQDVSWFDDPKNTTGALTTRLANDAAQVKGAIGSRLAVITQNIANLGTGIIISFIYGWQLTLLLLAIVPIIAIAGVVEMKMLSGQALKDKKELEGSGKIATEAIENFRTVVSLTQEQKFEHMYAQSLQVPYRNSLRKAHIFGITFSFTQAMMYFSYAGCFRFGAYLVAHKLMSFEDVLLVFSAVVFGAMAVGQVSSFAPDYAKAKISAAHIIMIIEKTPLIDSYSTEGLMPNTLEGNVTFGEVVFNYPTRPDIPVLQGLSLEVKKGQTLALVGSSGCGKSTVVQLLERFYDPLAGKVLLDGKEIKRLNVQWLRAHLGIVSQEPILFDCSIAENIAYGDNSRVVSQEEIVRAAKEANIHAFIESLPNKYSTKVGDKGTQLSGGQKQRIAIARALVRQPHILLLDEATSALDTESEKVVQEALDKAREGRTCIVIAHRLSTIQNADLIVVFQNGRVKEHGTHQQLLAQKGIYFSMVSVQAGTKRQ
Protocol Text: P-glycoprotein substrate transport blockade – cell-based (AID 377)
Recorded Conditions: MDR1-expressing cells, fluorescent substrate accumulation slope; stronger effect = higher value; concentration not given here
Records with an inconclusive call do not appear.
Class t: fluorescence slope change at least 50%. Class f: fluorescence slope change below 50%.

// below: answered molecules
> print(dat)
                                   molecule  label.value
1          COc1c2occc2c(OC)c2c(=O)cc(C)oc12            t
2  NS(=O)(=O)c1cc2c(cc1Cl)NC(C(Cl)Cl)NS2(=O)=O (configuration not stated)            f
3  NCC1CCC(C(=O)O)CC1 (configuration not stated)            t
4  NS(=O)(=O)c1cc2c(cc1Cl)NC(CSCc1ccccc1)=NS2(=O)=O            t
5  COC(=O)[C@H]1[C@H]2C[C@@H]3c4[nH]c5cc(OC)ccc5c4CCN3C[C@H]2C[C@@H](OC(=O)c2cc(OC)c(OC)c(OC)c2)[C@@H]1OC            t

Read the next record carefully.
Req: Test whether the molecule `Cc1c(NC(=O)c2cccnc2)c(=O)n(-c2ccccc2)n1C` records fluorescence slope change of 50% or higher.
Resp: f

---

System: F380Y/beta1
Protocol Text: BK channel mutant inhibitors and activators – cell-based, U2OS BacMam, thallium flux, beta subunits, selectivity assay, profiling panel (AID 1259406);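 further: initial slope of Thallos dye fluorescence rise after thallium is added; log ratio against the mean of 0.3% DMSO vehicle wells on the same plate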
Recorded Conditions: U2OS BacMam BK variants, at 30 µM
Active and inactive are the calls of the source.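 How the source made its calls: active means thallium flux through the channel raised or lowered by more than 3 SD from vehicle-only wells, actives on both sides; inactive means the rest.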
Pick one and only one: y = active, n = inactive

> print(dat)
                                   compound  label.value
1  O=C1c2cccc3c2[C@H](CCC3)CN1[C@@H]1CN2CCC1CC2            n

Req: Write down the call the test reported for this compound. Item: `Brc1c(NC2=NCCN2)ccc2nccnc12`
Resp: n

Req: Write down the call the test reported for this compound. Item: `CC(C)(O)c1ccccc1CC[C@@H](SCC1(CC(=O)O)CC1)c1cccc(/C=C/c2ccc3ccc(Cl)cc3n2)c1`
Resp: y

Req: Write down the call the test reported for this compound. Item: `CC1(C)S[C@@H]2[C@H](N=CN3CCCCCC3)C(=O)N2[C@H]1C(=O)O`
Resp: n
